Target: Estrogen receptor (Homo sapiens, UniProt P03372)
Sequence (P03372 whole entry): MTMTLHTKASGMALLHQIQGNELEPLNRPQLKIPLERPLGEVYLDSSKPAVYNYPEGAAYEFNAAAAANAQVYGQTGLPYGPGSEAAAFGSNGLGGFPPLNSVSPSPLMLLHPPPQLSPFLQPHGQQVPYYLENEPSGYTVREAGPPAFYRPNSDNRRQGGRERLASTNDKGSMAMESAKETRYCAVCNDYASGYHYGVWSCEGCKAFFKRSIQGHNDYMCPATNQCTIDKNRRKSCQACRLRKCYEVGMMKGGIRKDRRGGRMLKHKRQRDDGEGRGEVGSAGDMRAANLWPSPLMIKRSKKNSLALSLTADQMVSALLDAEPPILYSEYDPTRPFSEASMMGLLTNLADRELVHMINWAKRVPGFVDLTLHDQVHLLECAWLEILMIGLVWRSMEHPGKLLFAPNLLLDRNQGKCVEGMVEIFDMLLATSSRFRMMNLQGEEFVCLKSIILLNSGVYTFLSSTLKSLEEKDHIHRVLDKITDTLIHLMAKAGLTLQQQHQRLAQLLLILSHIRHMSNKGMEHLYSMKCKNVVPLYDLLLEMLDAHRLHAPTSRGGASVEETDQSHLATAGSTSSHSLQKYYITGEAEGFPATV
Assay: Inhibition of ER (unknown origin) by luciferase reporter assay
Endpoint: pIC50
Would you please state pIC50, meaning minus log10 of the concentration in mol/L, as a bare number?

Field pIC50 (entry C[C@]12CCC3c4ccc(O)cc4C[C@@H](CCCCCCCC[C@H](CCCC(F)(F)C(F)(F)C(F)(F)C(F)(F)F)C(=O)O)C3C1CCC2=O (stereo partly specified) ) reads 7.30

---

tested on: MCF7; experiment: Antiproliferative activity against human MCF7 cells assessed as reduction in cell proliferation; format: functional, cell-based
Endpoint: pIC50
Would you please state pIC50, meaning minus log10 of the concentration in mol/L, as a bare number?

Fill in: MCF7 pIC50 for CCNCCc1ccc(CN(CC)c2cc(OC)ccc2[C@@H]2CCc3cc(O)ccc3C2)cc1 [ELACESTRANT] = 8.38

---

system: MCF7; assay: Antiproliferative activity against human MCF7 cells; type: functional, cell-based
Endpoint: pIC50
Would you please state pIC50, meaning minus log10 of the concentration in mol/L, as a bare number?

Example compounds with recorded pIC50:
C[C@]12CC[C@@H]3c4ccc(O)cc4C[C@@H](CCCCCCCCC[S+]([O-])CCCC(F)(F)C(F)(F)F)[C@H]3[C@@H]1CC[C@@H]2O (stereo not given in full) [FULVESTRANT]
9.46
CC1=C(c2ccc(O)cc2)[C@H](c2ccc(OCCN3CC[C@@H](C)C3)cc2)Oc2cc(O)ccc21
8.04
CN(CCCCCCC(F)(F)C(F)(F)C(F)(F)C(F)(F)F)CCCCC[C@@H]1Cc2cc(O)ccc2C2C1C1CC[C@H](O)[C@@]1(C)C[C@@H]2F (stereo not given in full)
8.72

Field pIC50 (entry CN(CCCCC[C@@H]1Cc2cc(O)ccc2C2C1C1CC[C@H](O)[C@@]1(C)C[C@@H]2F)CCCSCCCC(F)(F)C(F)(F)F (stereo not given in full) ) reads 8.62

Field pIC50 (entry C[C@]12C[C@H](c3ccc(OCCCCCS(=O)(=O)CCCC(F)(F)C(F)(F)F)cc3)C3c4ccc(O)cc4CCC3C1CC[C@@H]2O (stereo not given in full) ) reads 9.89
